Where do the numbers come from? From the supplement of paper PMC9170038.

# System: MS2 coat protein
# test_summary: apparent KD of MS2 coat protein; higher = weaker reporter binding
# study_conditions: Eterna round: R107; input ligand: arginine 13.2 mM
Can you tell me apparent KD of MS2 coat protein for the items I'm about to list?
Report the value in nM with no unit label.

# query: apparent KD of MS2 coat protein of entry UCAGUGCAAGGAAGGAGCGGGUACAUGAGGAUCACCCAUGUGCAAGUGGUGAGCGUUUGUGCCCAGGUAGGUCGCCUAGCCUGGU [XArg-B18]
507

# query: apparent KD of MS2 coat protein of entry AACAUGAGGAUCUUCCUUAAGUGAACUGAAGGAGCGCCAGAUAUGGCAGGUAGGUCGCAGCGAACAUGAGGAUCACCCAUGUUAA [Arg A Ex t3]
38.1

# query: apparent KD of MS2 coat protein of entry AGAACAAAACUAAAUAAACAACUGGGUGAUACCAGCACAUGUGCGUGCCCUUGGCAGCAUCCGGCCACAUGAGGAUCACCCAUGU [Inarar]
42.6

# query: apparent KD of MS2 coat protein of entry UUUAUAUAGACGGCCGCCACUGGAAUUAAUACAUGAGGAUCACCCAUGUAUAGAGAAUAAUAAUACAGGACCGGGUCUUCAUGAU [SS Tryp B Tesla 1.1]
28.3

# query: apparent KD of MS2 coat protein of entry AAAGCUACGUAAAAUAAAACUACAUGUGAAGGAGCGCGCGAAAGCGCAGGUAGGUCGCACAUGAGGAUCACCCAUGUCGUAGCAA [MAT - Exclusion Arginine A - Mod of Eli - D5]
43.9

# query: apparent KD of MS2 coat protein of entry AUCGUACCUGAUGAUACCAGCAAUUGCUCGUGACAUGAGGAUCACCCAUGUGACCAGUGAUGCCCUUGGCAGCAUGGUCGGUGCA [Same State - Theophylline B (Freestyle 22)]
42.8

====

# Test system: MS2 coat protein
# test_summary: apparent KD of MS2 coat protein, switch OFF state (with FMN for OFF switches, without FMN for ON switches); designed switch direction (-1 OFF switch, 1 ON switch): -1; higher = weaker reporter binding
# study_conditions: FMN input: 0 or 200 uM; Eterna round: R93 (includes R88 designs)
Can you tell me apparent KD of MS2 coat protein for the items I'm about to list?
Reply with the number, then its unit.

# query: apparent KD of MS2 coat protein of entry CAUAAACAUGAGGAUCACCCAUGUGAGGAUAUGAUAUUACUAGGACGGCUGUAAUCAAUCAGAAGGCACAUCAA [JR_Exc--1_Sub1206]
41.5 nM

# query: apparent KD of MS2 coat protein of entry AAGAAGGUAGGAUAUACAUGAGGAUCACCCAUGUAAAAGAAAGAGGGAAAAGAGAAAAGUAGAAGGACCAAGAA [Ankhmakis]
50.1 nM

# query: apparent KD of MS2 coat protein of entry AGUUAGCGAGGAUAUACAUGAGGAUCACCCAUGUGAGAGAAAAAAGUGAGAAAGAAAAGUAGAAGGCGCUAACA [Moding Norbert Elias (73)]
119 nM

# query: apparent KD of MS2 coat protein of entry CUCAAGUGAGGAUAUAAAAGAAAAGAAGAGAAAGAAAAGAAUUAGAAGGCACAUGAGGAUCACCCAUGUAAGAA [EteRNA is fun!]
25.5 nM

# query: apparent KD of MS2 coat protein of entry AACAGUACAGGAUAUACAUGAGGAUCACCCAUGUGAAAAUUAAGUGGCGAACCACAGUGUAGAAGGGUACUGGA [Mat - Exclusion 3 - Eli mod - D51]
33.5 nM

# query: apparent KD of MS2 coat protein of entry AGGGAACAUGAGGAUCACCCAUGUGAGGAUAUACAAAAGAAAAGAAAAGAAAGAAGAAGUAGAAGGUACAAGAA [Neferka]
43.9 nM

# query: apparent KD of MS2 coat protein of entry AAAAAGCGAGGAUAUGCAAGAAAAAAAAAAAAAAAAAAGGGACAUGAGGAUCACCCAUGUAGAAGGCGCAAAAA [Diamond 65]
38 nM

# query: apparent KD of MS2 coat protein of entry AACAGUACAGGAUAUACAUGAGGAUCACCCAUGUGAGACUUAAAAGGCGUACCUAAAAGUAGAAGGGUACUGGA [JL Maslow Revisted mod 21]
176 nM

# query: apparent KD of MS2 coat protein of entry GCUGGCGAAGGAUAUACAUGAGGAUCACCCAUGUGAGAGAAAAAAGUGAGAAAGAAAAGUAGAAGGUCGUUAGG [salish99-ex3-96]
70.4 nM

# query: apparent KD of MS2 coat protein of entry AAGAUCAGAGGAUAUACAUAAGGUGAUGGAGACAUCGCCAAACAUGAGGAUCACCCAUGUAGAAGGCUGAUCAA [Mat - Exclusion 2 - JL mod - D62]
49.7 nM

# query: apparent KD of MS2 coat protein of entry AAAAAGGCAGGAUAUACAUGAGGAUCACCCAUGUAAAAAAAAAAAAAAGGGAAAAAAAGUAGAAGGGCCAAAAA [Along]
53.4 nM

# query: apparent KD of MS2 coat protein of entry AAAAAGUCAGGAUAUACAAAAGUGCGAAAGCACAAAAAGGGACAUGAGGAUCACCCAUGUAGAAGGGACAAGAA [Married to this design, 61% 4]
124 nM

# query: apparent KD of MS2 coat protein of entry AAAGGACAUGAGGAUCACCCAUGUGAGGAUAUGCUCUACGAACGAAUACACAUGAGAAGCAGAAGGCACAUAAG [try 1]
142 nM
